This collection of values is drawn from patent US12331051B2.

target: Beta 1 adrenergic receptor (Homo sapiens, UniProt P08588); construct: expressed in transfected cells; host or cells: HEK-293; test: Functional assay in HEK-293 cells (cAMP); format: cell-based
Sequence (P08588 whole entry): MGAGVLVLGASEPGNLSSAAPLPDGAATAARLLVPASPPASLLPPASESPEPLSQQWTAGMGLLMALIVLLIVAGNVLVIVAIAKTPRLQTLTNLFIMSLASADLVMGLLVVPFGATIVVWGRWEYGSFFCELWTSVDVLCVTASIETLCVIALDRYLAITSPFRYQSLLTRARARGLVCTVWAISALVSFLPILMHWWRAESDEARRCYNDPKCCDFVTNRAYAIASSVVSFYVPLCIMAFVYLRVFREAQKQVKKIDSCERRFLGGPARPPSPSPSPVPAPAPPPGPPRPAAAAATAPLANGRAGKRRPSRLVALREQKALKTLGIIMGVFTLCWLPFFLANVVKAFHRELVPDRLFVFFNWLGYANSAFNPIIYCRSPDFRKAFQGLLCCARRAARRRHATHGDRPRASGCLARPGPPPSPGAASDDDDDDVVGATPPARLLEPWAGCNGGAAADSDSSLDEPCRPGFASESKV
value.type: IC50 (nM)
Numbers only here, please. The scale is nM.

Give recorded IC50 with Beta 1 adrenergic receptor (Homo sapiens, UniProt P08588) for the following compound: CCN(CC)C(=O)[C@@H]1C=C2c3cccc4[nH]c(Br)c(c34)C[C@H]2N(C)C1
870

----------
target: D2S dopamine receptor (Homo sapiens, UniProt P14416)
Sequence (P14416 1-414 isoform P14416-2): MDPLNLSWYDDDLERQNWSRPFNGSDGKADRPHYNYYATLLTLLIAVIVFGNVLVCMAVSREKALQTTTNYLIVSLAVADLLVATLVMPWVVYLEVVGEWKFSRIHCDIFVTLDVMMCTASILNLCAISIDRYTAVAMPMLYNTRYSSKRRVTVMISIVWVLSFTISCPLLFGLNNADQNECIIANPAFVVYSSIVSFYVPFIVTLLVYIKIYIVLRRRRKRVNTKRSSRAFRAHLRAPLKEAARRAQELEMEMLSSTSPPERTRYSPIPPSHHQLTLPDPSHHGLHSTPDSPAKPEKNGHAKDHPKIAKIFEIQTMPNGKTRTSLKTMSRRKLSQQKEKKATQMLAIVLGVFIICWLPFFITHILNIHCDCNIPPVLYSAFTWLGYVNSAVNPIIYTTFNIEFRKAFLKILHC
value.type: pKi
Give only the number. pKi is defined as minus log10 of concentration in molar units.

What value of pKi on D2S dopamine receptor (Homo sapiens, UniProt P14416) does CCN(CC)C(=O)[C@@H]1C=C2c3cccc4[nH]c(Br)c(c34)C[C@H]2N(C)C1 have?
8.68

----------
target: H1 histaminergic receptor (Homo sapiens); experiment: BRET-based G protein dissociation assay; type: cell-based
Sequence (P35367 whole entry): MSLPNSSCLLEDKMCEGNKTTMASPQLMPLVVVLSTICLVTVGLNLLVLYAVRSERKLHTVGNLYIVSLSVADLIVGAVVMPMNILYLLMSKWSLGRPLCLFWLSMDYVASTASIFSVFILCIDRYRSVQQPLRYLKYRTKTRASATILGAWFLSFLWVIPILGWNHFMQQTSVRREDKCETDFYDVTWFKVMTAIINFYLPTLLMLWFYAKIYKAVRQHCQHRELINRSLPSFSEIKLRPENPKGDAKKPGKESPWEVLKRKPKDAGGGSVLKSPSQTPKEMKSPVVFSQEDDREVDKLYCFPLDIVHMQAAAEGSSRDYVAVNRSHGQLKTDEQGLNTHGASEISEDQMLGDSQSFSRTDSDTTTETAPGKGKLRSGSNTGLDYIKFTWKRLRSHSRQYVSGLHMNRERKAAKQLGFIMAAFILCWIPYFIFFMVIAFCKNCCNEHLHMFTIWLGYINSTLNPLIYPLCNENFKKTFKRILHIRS
value.type: pEC50
The read-out pEC50 is expressed as -log10 of concentration in moles per litre.

Need pEC50 of CCN(CC)C(=O)[C@@H]1C=C2c3cccc4[nH]c(Br)c(c34)C[C@H]2N(C)C1 [E559] , thanks.
6.82

----------
biological target: D4 dopamine receptor (Homo sapiens, UniProt P21917); experiment: BRET-based G protein dissociation assay; type: cell-based
Sequence (P21917 whole entry): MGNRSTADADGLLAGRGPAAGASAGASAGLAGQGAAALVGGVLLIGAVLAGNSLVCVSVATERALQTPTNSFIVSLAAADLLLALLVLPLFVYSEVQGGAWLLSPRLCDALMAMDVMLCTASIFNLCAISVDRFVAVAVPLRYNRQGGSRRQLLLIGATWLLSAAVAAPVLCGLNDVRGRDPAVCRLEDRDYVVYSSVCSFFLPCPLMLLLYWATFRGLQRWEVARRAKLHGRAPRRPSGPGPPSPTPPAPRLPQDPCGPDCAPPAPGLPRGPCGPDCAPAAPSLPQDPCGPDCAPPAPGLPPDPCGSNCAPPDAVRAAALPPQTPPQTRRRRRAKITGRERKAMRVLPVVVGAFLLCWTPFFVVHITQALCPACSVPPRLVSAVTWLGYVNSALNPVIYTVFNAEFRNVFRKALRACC
value.type: pEC50
Expect pEC50 as a plain number equal to -log10 of the molar concentration.

Quick check: pEC50 of CCN(CC)C(=O)[C@@H]1C=C2c3cccc4[nH]c(Br)c(c34)C[C@H]2N(C)C1 [E559] ?
8.91

----------
target: Serotonin 2B receptor (5-HT2BR) (Homo sapiens, UniProt P41595)
Sequence (P41595 whole entry): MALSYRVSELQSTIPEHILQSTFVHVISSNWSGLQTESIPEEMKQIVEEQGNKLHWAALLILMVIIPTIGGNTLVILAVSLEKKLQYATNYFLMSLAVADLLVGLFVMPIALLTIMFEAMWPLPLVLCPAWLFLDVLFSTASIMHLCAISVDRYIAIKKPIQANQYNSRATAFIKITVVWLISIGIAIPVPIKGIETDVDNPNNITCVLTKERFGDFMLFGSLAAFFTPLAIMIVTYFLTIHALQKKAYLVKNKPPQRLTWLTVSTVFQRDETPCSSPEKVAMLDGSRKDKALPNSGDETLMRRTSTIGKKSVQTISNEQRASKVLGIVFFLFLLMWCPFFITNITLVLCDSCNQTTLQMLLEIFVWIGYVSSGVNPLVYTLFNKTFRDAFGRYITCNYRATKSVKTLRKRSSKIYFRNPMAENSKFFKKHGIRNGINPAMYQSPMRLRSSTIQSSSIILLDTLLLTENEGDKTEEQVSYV
value.type: pKi
Schema: pKi number; meaning minus log10 of the concentration expressed in molar units.

May I ask what pKi has been recorded for CCN(CC)C(=O)[C@@H]1C=C2c3cccc4[nH]c(Br)c(c34)C[C@H]2N(C)C1 [E559] ?
8.15

----------
molecular target: 5-HT1E (Homo sapiens, UniProt P28566); assay: Functional assay (Arrestin)
Sequence (P28566 whole entry): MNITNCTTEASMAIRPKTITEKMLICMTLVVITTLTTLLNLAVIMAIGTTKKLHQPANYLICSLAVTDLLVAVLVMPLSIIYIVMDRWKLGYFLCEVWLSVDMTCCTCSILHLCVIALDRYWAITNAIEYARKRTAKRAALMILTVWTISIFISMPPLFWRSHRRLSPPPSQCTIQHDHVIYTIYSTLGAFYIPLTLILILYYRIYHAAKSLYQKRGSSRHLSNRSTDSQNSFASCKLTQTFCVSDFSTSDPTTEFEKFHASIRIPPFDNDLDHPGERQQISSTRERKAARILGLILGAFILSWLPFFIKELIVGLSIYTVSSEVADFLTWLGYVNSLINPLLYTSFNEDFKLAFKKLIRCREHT
value.type: EC50

{"columns": ["molecular.string", "value.type", "result"],
 "data": [
  ["CCN(CC)C(=O)[C@@H]1C=C2c3cccc4[nH]c(Br)c(c34)C[C@H]2N(C)C1", "EC50", "> 10 µM"]
]}

# input for lookup
I'd like to know its EC50. The compound in question is CCN(CC)C(=O)[C@H]1C=C2c3cccc4[nH]c(Br)c(c34)C[C@H]2N(C)C1
> 10 µM

----------
Biological target: ADRa1A (α1A adrenergic receptor) (Homo sapiens)
Sequence (P35348 1-466): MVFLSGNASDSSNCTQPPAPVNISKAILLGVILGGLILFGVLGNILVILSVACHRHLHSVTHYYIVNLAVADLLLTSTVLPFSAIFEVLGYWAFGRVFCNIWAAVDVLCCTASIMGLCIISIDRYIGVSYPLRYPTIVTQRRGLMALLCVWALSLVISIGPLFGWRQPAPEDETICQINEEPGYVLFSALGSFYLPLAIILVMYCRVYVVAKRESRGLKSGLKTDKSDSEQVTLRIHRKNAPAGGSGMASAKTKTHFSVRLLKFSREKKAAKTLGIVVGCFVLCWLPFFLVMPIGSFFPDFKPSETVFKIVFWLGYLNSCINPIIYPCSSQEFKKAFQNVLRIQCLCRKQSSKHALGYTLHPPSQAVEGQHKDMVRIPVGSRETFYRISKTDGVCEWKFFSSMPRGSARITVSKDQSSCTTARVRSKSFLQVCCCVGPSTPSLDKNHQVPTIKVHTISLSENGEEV
Assay: BRET-based G protein dissociation assay
Format: cell-based
value.type: pEC50
Reminder that pEC50 means the negative base-10 logarithm of the concentration expressed in mol/L.

// pEC50 lookup, key: CCN(CC)C(=O)[C@@H]1C=C2c3cccc4[nH]c(Br)c(c34)C[C@H]2N(C)C1
7.60
